This collection of values is drawn from patent US8974837B2.

Method Summary: MTT assay, cytotoxic effect on HL-60 cells
Assay type: cell-based
Applied Conditions: human, HL-60 promyelocytic cells, 50 μM, read-out: Cell viability (%)
Outcome Measure: viability at 4 h, 50 µM (%)
Record the value in %, omitting the unit from your answer.

Find the recorded viability at 4 h, 50 µM belonging to COc1ccc(/C=C/C(=O)O[C@H]2[C@@H]3C=CO[C@@H](O[C@@H]4O[C@H](CO)[C@@H](O)[C@H](O)[C@H]4O)[C@@H]3[C@@]3(CO)O[C@@H]23)cc1O [Minecoside] and report it.
98
